FYI, the data here is from PubChem BioAssay (NCI).

system: NCI-H226 lung; test: NCI tumour cell line growth inhibition, 48 h
measuredQuantity: GI50

| molecule | targetUnderTest | GI50 |
| --- | --- | --- |
| CC(C)OP(=O)(CP(=O)(OC(C)C)OC(C)C)OC(C)C.[CH3][Sn]([Br])([Br])[Br] | NCI-H226 lung | > 100 µM |

Value sought for every listed molecule: GI50.
1. Cc1nn(-c2ccccc2)c2c1C1C(=C(c3ccc(Cl)cc3)N2)C(=O)Nc2ccccc21 (stereo unspecified)
2. CC[C@@]1(OC(=O)CN)C(=O)OCc2c1cc1n(c2=O)Cc2cc3cc(N)ccc3nc2-1

1. 7.34 µM
2. < 0.0152 µM

Report GI50 for each item below.
1. COC(=O)c1cc(Nc2ccc(O)c3c2C(=O)c2c([N+](=O)[O-])ccc(O)c2C3=O)cc(C(=O)OC)c1
2. COc1ccc2nc3ccc(OC)cc3c(SCCCN)c2c1
3. COc1cc[nH]c1/C=C1\C(=O)Nc2ccc(F)c(C#CC3(O)CCOCC3)c21

["20.1 µM", "19.2 µM", "0.498 µM"]

* * *

system: XF 498 CNS; test: NCI tumour cell line growth inhibition, 48 h
measuredQuantity: TGI

| compound | targetUnderTest | TGI |
| --- | --- | --- |
| Cc1cc(CS(=O)(=O)/C=C/c2ccccc2[N+](=O)[O-])c(CS(=O)(=O)/C=C/c2ccccc2[N+](=O)[O-])cc1C | XF 498 CNS | 38.3 µM |
| CC(=O)NC1C(OCc2ccccc2)OC(COC(=O)CCCCCCCCCCNC(=O)c2cccc3c(=O)c4ccccc4[nH]c23)C(O)C1OC(C)C(=O)NC(C)C(=O)NC(CCC(N)=O)C(N)=O (centres undefined) | XF 498 CNS | > 100 µM |

# batch: return TGI for each of the 5 compounds below
1. CCOC(=O)c1cnc2[nH]c(=O)c3ccccc3n2c1=O
2. O=C(CCCCCCCCC(=O)OCC1OC(n2cnc3c(=O)[nH]cnc32)C(O)C1O)OCC1OC(n2cnc3c(=O)[nH]cnc32)C(O)C1O (centres undefined)
3. C/C(=N\NS(=O)(=O)c1ccc(C)cc1)c1ccc[n+]([O-])n1
4. CC1=C(C#N)C(N)=C2C(C)=C(C#N)C(N)=C12
5. CCOc1ccc(NC(=O)c2c(N/N=C/c3ccc(OC)cc3)nc(=O)[nH]c2C)cc1

1: > 100 µM; 2: > 100 µM; 3: > 100 µM; 4: > 100 µM; 5: > 100 µM

List the reported TGI of each compound below.
1. O=C1CCC2(CCC(=O)NC2=O)C(=O)N1
2. CC(=O)O[C@]12CCCCCCC1C1(O)C(O)CCC[C@H]12 (some centres undefined)
3. O=C(CCCCCCCCCCc1ccccc1)c1c(O)cccc1O

1. > 100 µM
2. > 100 µM
3. 40.1 µM

Please go through the list and note TGI for each compound.
1. CCN(CC)c1ccc(C(=C2C=CC(=[N+](CC)CC)C=C2)c2ccc(N(CC)CC)cc2)cc1
2. CC(C)(CN1CCCCC1)C(=O)CC(SCCS(=O)(=O)O)c1ccc(Br)cc1 (centres undefined)
3. Cc1ccc(S(=O)(=O)C(C#N)c2nc3ccccc3nc2-n2cccn2)cc1 (centres undefined)

["0.0815 µM", "2.07 µM", "> 100 µM"]

// TGI lookup, key: CN1CC2(CCCCC2)C(O)C12C=CCCC2 (centres undefined)
> 100 µM
